Provenance of the data: PubChem BioAssay (EPA / NIEHS)

# assay.remarks: ATG_TCF_b_cat_CIS: Attagene CIS-FACTORIAL HepG2 Assay for human T-Cell-Factor with beta-catenin (TCF/b-cat) (AID 2282965)
# measurement.context: HepG2 TCF/beta-catenin cis-reporter transcription, actives raise or lower the signal
Active and inactive are the calls of the source. The calls were made as follows: active = hit-call score of the fitted dose curve at least 0.9, where 1 is the maximum; inactive = score below 0.9.
Returns: one label drawn from label 1 for active, label 0 for inactive

molecule: C[C@@H](Oc1ccc(CNC(=O)c2cccnc2Oc2ccc3c(c2)OCO3)c(F)c1)C(=O)O
answer.label: label 0
--
molecule: FC(F)C(F)(F)COCC1CO1 (stereo not drawn)
answer.label: label 0
--
molecule: Cc1nccn1-c1ccc(Sc2cccc(C3(C(N)=O)CCOCC3)c2)cc1
answer.label: label 1
--
molecule: CNC(C)=O
answer.label: label 0
--
molecule: c1ccc(C(O[C@@H]2CCCN(CCc3ccc4c(c3)OCO4)C2)c2ccccc2)cc1
answer.label: label 0
--
molecule: CCn1nc(C)c2c1C(=O)NCC(c1ccc(O)cc1)=N2
answer.label: label 0

[ask] // param item: COS(C)(=O)=O ; yields the recorded call
[reply] label 0

[ask] // param item: c1ccc2cc3ccccc3cc2c1 ; yields the recorded call
[reply] label 0

[ask] // param item: CCOC(N)=O ; yields the recorded call
[reply] label 0

[ask] // param item: O=C(NO)C1(NS(=O)(=O)c2ccc(Oc3ccc(F)cc3)cc2)CCOCC1 ; yields the recorded call
[reply] label 0

[ask] // param item: NCC(F)(F)C(F)(F)C(F)(F)C(F)(F)F ; yields the recorded call
[reply] label 0

[ask] // param item: O=C1CN(N=Cc2ccc([N+](=O)[O-])o2)C(=O)N1 ; yields the recorded call
[reply] label 1

[ask] // param item: O=C(O)[C@H](O)[C@@H](O)C(=O)O ; yields the recorded call
[reply] label 0

[ask] // param item: C=CN1CCCC1=O ; yields the recorded call
[reply] label 0

[ask] // param item: CCCCCCCC/C=C\CCCCCCCC(=O)OC[C@@H](O)[C@H]1OC[C@H](O)[C@H]1O ; yields the recorded call
[reply] label 0

[ask] // param item: OCCC(F)(F)C(F)(F)C(F)(F)C(F)(F)F ; yields the recorded call
[reply] label 0

[ask] // param item: NC(=O)N1c2ccccc2C=Cc2ccccc21 ; yields the recorded call
[reply] label 0

[ask] // param item: CCCCCCCCCCCCCCO ; yields the recorded call
[reply] label 0

[ask] // param item: OCC(CO)(CO)CO ; yields the recorded call
[reply] label 0

[ask] // param item: C[Si](C)(C)C(F)(F)C(F)(F)C(F)(F)F ; yields the recorded call
[reply] label 0

[ask] // param item: CC(C)CCCCCCOC(=O)C1CCCCC1C(=O)OCCCCCCC(C)C (stereo not drawn) ; yields the recorded call
[reply] label 0
